system under test: LIMK1, P53667
Sequence (P53667 155-268): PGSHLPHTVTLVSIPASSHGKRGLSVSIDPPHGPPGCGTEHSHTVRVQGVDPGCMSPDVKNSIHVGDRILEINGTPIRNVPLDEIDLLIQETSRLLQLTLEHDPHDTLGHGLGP
method description: holdup assay
Design: key: below the threshold = too weak to quantify, mostly under pKd 3.1 to 4
condition details: plain residues with an end cap or a label only (N-terminal biotin on a linker: ttds)

[
  {
    "binder": "SSIDLWETAL [SLC15A5, A6NIM6]",
    "pKd": "below the threshold"
  },
  {
    "binder": "SRSRRRETAL [HPV33-E6, P06427]",
    "pKd": "below the threshold"
  },
  {
    "binder": "SHSSKGETAV [FZD7, O75084]",
    "pKd": "below the threshold"
  }
]
